For each of the compounds below, state its IC50.
- assay.system: muscarinic M1 receptors (Rattus norvegicus, UniProt P08482)
- Sequence (P08482 whole entry): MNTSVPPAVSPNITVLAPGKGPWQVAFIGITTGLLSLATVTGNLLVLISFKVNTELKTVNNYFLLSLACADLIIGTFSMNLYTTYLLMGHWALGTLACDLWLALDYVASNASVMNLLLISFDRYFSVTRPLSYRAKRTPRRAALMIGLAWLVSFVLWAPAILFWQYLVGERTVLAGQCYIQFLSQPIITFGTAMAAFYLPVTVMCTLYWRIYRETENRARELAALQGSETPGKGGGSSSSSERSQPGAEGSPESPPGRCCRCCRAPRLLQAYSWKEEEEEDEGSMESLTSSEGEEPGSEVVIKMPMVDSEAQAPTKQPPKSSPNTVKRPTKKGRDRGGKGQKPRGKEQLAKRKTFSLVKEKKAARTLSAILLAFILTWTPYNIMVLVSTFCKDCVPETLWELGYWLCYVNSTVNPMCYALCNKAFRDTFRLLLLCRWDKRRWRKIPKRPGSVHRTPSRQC
The reply should contain only the number, in nM.

Documented IC50 of Cc1cc(O[C@H]2CN3CCC2CC3)nc(-c2ccc(Cl)cc2)n1 : 240

Documented IC50 of Fc1ccc(-c2nc(O[C@H]3CN4CCC3CC4)cc(C(F)(F)F)n2)cc1 : 600

Documented IC50 of COc1ccc(-c2nc(O[C@H]3CN4CCC3CC4)cc(C(C)(C)C)n2)cc1 : 3100

Documented IC50 of Cc1cc(O[C@H]2CN3CCC2CC3)nc(-c2ccc(O)cc2)n1 : 810

Documented IC50 of Cc1cc(O[C@H]2CN3CCC2CC3)nc(-c2ccc(F)cc2)n1 : 170
